These measurements were taken from patent US10647738B2.

Assay: Hydrodynamic radius and size distribution of micelles by dynamic light scattering (DLS)
Assay type: physicochemical
Settings: FIGS. 36 and 37
Protocol: A method for measuring the radius of a micelle is not particularly limited, but a method well known in the art may be used, and for example, the measurement may be performed using a dynamic light scattering (DLS) experiment. Specifically, the critical micellar concentration (CMC) was measured using fluorescence staining and diphenylhexatriene (DPH), and the hydrodynamic radii (Rh) of the micelles formed by agents were measured through a dynamic light scattering (DLS) experiment. […]
readoutName: size distribution of micelles (number of micelle sets)

[
  {
    "molecule": "CCCCCCCCCCCCO[C@@H]1O[C@H](CO)[C@@H](O[C@H]2O[C@H](CO)[C@@H](O)[C@H](O)[C@H]2O)[C@H](O)[C@H]1O [DDM, n-dodecyl-β-D-maltopyranoside, reference compound]",
    "result": "one set of micelles"
  },
  {
    "molecule": "CCCCCCCCCC(CO[C@@H]1OC(CO)[C@@H](O[C@H]2OC(CO)[C@@H](O)C(O)C2O)C(O)C1O)(CO[C@@H]1OC(CO)[C@@H](O[C@H]2OC(CO)[C@@H](O)C(O)C2O)C(O)C1O)Cc1ccc(CC(CCCCCCCCC)(CO[C@@H]2OC(CO)[C@@H](O[C@H]3OC(CO)[C@@H](O)C(O)C3O)C(O)C2O)CO[C@@H]2OC(CO)[C@@H](O[C@H]3OC(CO)[C@@H](O)C(O)C3O)C(O)C2O)cc1 (stereo partly drawn)",
    "result": "one set of micelles"
  },
  {
    "molecule": "CCCCCCCCC(CO[C@@H]1OC(CO)[C@@H](O[C@H]2OC(CO)[C@@H](O)C(O)C2O)C(O)C1O)(CO[C@@H]1OC(CO)[C@@H](O[C@H]2OC(CO)[C@@H](O)C(O)C2O)C(O)C1O)Cc1ccc(C[C@](CCCCCCCC)(CO[C@H]2CC(O)[C@H](O[C@H]3OC(CO)[C@@H](O)C(O)C3O)C(CO)O2)CO[C@@H]2OC(CO)[C@@H](O[C@H]3OC(CO)[C@@H](O)C(O)C3O)C(O)C2O)cc1 (stereo partly drawn)",
    "result": "one set of micelles"
  }
]

###

Test: Critical micelle concentration by fluorescence staining with diphenylhexatriene (DPH)
Format: physicochemical
Settings: aqueous solution
Method: While a method for measuring CMC is not particularly limited, a method widely known in the art may be used, and the measurement may be performed by, for example, a fluorescence staining method using diphenylhexatriene (DPH). Specifically, the critical micellar concentration (CMC) was measured using fluorescence staining and diphenylhexatriene (DPH), and the hydrodynamic radii (Rh) of the micelles formed by agents were measured through a dynamic light scattering (DLS) experiment. […]
A collection of compounds and their measured CMC (wt %)

[
  {
    "compound": "CCCCCCCCCCCCC(CO[C@@H]1OC(CO)[C@@H](O[C@H]2OC(CO)[C@@H](O)C(O)C2O)C(O)C1O)(CO[C@@H]1OC(CO)[C@@H](O[C@H]2OC(CO)[C@@H](O)C(O)C2O)C(O)C1O)Cc1ccc(CC(CCCCCCCCCCCC)(CO[C@@H]2OC(CO)[C@@H](O[C@H]3OC(CO)[C@@H](O)C(O)C3O)C(O)C2O)CO[C@@H]2OC(CO)[C@@H](O[C@H]3OC(CO)[C@@H](O)C(O)C3O)C(O)C2O)cc1 (stereo partly shown) [P-XMA-C12]",
    "CMC (wt %)": "~0.0002 wt %"
  },
  {
    "compound": "CCCCCCCCCCCC(CO[C@@H]1OC(CO)[C@@H](O[C@H]2OC(CO)[C@@H](O)C(O)C2O)C(O)C1O)(CO[C@@H]1OC(CO)[C@@H](O[C@H]2OC(CO)[C@@H](O)C(O)C2O)C(O)C1O)Cc1cccc(C[C@](CCCCCCCCCCC)(CO[C@@H]2OC(CO)[C@@H](O[C@H]3OC(CO)[C@@H](O)C(O)C3O)C(O)C2O)CO[C@@H]2OC(CO)[C@@H](O[C@@H]3OC(CO)[C@@H](O)C(O)C3O)C(O)C2O)c1 (stereo partly shown) [M-XMA-C11]",
    "CMC (wt %)": "~0.0011 wt %"
  },
  {
    "compound": "CCCCCCCCCCCCCCCCCCC(CO[C@@H]1OC(CO)[C@@H](O[C@@H]2OC(CO)[C@@H](O)C(O)C2O)C(O)C1O)(CO[C@@H]1OC(CO)[C@@H](O[C@@H]2OC(CO)[C@@H](O)C(O)C2O)C(O)C1O)Cc1ccccc1CC(CCCCCCCCCCCCCCCCCC)(CO[C@@H]1OC(CO)[C@@H](O[C@@H]2OC(CO)[C@@H](O)C(O)C2O)C(O)C1O)CO[C@@H]1OC(CO)[C@@H](O[C@@H]2OC(CO)[C@@H](O)C(O)C2O)C(O)C1O (stereo partly shown) [O-XMA-C18]",
    "CMC (wt %)": "~0.0003 wt %"
  },
  {
    "compound": "CCCCCCCCCCCC(CO[C@@H]1OC(CO)[C@@H](O[C@@H]2OC(CO)[C@@H](O)C(O)C2O)C(O)C1O)(CO[C@@H]1OC(CO)[C@@H](O[C@@H]2OC(CO)[C@@H](O)C(O)C2O)C(O)C1O)Cc1ccccc1C[C@](CCCCCCCCCCC)(CO[C@@H]1OC(CO)[C@@H](O[C@H]2OC(CO)[C@@H](O)C(O)C2O)C(O)C1O)CO[C@@H]1OC(CO)[C@@H](O[C@@H]2OC(CO)[C@@H](O)C(O)C2O)C(O)C1O (stereo partly shown) [O-XMA-C11]",
    "CMC (wt %)": "~0.0019 wt %"
  },
  {
    "compound": "CCCCCCCCCCC(CO[C@@H]1OC(CO)[C@@H](O[C@H]2OC(CO)[C@@H](O)C(O)C2O)C(O)C1O)(CO[C@@H]1OC(CO)[C@@H](O[C@H]2OC(CO)[C@@H](O)C(O)C2O)C(O)C1O)Cc1ccc(CC(CCCCCCCCCC)(CO[C@@H]2OC(CO)[C@@H](O[C@H]3OC(CO)[C@@H](O)C(O)C3O)C(O)C2O)CO[C@@H]2OC(CO)[C@@H](O[C@H]3OC(CO)[C@@H](O)C(O)C3O)C(O)C2O)cc1 (stereo partly shown) [P-XMA-C10]",
    "CMC (wt %)": "~0.001 wt %"
  },
  {
    "compound": "CCCCCCCCCCCCCCC(CO[C@@H]1OC(CO)[C@@H](O[C@H]2OC(CO)[C@@H](O)C(O)C2O)C(O)C1O)(CO[C@@H]1OC(CO)[C@@H](O[C@H]2OC(CO)[C@@H](O)C(O)C2O)C(O)C1O)Cc1cccc(C[C@](CCCCCCCCCCCCCC)(CO[C@@H]2OC(CO)[C@@H](O[C@H]3OC(CO)[C@@H](O)C(O)C3O)C(O)C2O)CO[C@@H]2OC(CO)[C@@H](O[C@@H]3OC(CO)[C@@H](O)C(O)C3O)C(O)C2O)c1 (stereo partly shown) [M-XMA-C14]",
    "CMC (wt %)": "~0.0005 wt %"
  },
  {
    "compound": "CCCCCCCCCCCCC(CO[C@@H]1OC(CO)[C@@H](O[C@@H]2OC(CO)[C@@H](O)C(O)C2O)C(O)C1O)(CO[C@@H]1OC(CO)[C@@H](O[C@@H]2OC(CO)[C@@H](O)C(O)C2O)C(O)C1O)Cc1ccccc1CC(CCCCCCCCCCCC)(CO[C@@H]1OC(CO)[C@@H](O[C@@H]2OC(CO)[C@@H](O)C(O)C2O)C(O)C1O)CO[C@@H]1OC(CO)[C@@H](O[C@@H]2OC(CO)[C@@H](O)C(O)C2O)C(O)C1O (stereo partly shown) [O-XMA-C12]",
    "CMC (wt %)": "~0.0011 wt %"
  },
  {
    "compound": "CCCCCCCCCCCCCCCCCCC(CO[C@@H]1OC(CO)[C@@H](O[C@@H]2OC(CO)[C@@H](O)C(O)C2O)C(O)C1O)(CO[C@@H]1OC(CO)[C@@H](O[C@@H]2OC(CO)[C@@H](O)C(O)C2O)C(O)C1O)Cc1cccc(CC(CCCCCCCCCCCCCCCCCC)(CO[C@@H]2OC(CO)[C@@H](O[C@@H]3OC(CO)[C@@H](O)C(O)C3O)C(O)C2O)CO[C@@H]2OC(CO)[C@@H](O[C@@H]3OC(CO)[C@@H](O)C(O)C3O)C(O)C2O)c1 (stereo partly shown) [M-XMA-C18]",
    "CMC (wt %)": "~0.0003 wt %"
  },
  {
    "compound": "CCCCCCCCCCCCC(CO[C@@H]1OC(CO)[C@@H](O[C@H]2OC(CO)[C@@H](O)C(O)C2O)C(O)C1O)(CO[C@@H]1OC(CO)[C@@H](O[C@H]2OC(CO)[C@@H](O)C(O)C2O)C(O)C1O)Cc1cccc(C[C@](CCCCCCCCCCCC)(CO[C@@H]2OC(CO)[C@@H](O[C@H]3OC(CO)[C@@H](O)C(O)C3O)C(O)C2O)CO[C@@H]2OC(CO)[C@@H](O[C@@H]3OC(CO)[C@@H](O)C(O)C3O)C(O)C2O)c1 (stereo partly shown) [M-XMA-C12]",
    "CMC (wt %)": "~0.0008 wt %"
  },
  {
    "compound": "CCCCCCCCCCCCCCCC[C@@](CO[C@@H]1OC(CO)[C@@H](O[C@H]2OC(CO)[C@@H](O)C(O)C2O)C(O)C1O)(CO[C@@H]1OC(CO)[C@@H](O[C@@H]2OC(CO)[C@@H](O)C(O)C2O)C(O)C1O)Cc1cccc(C[C@](CCCCCCCCCCCCCCCC)(CO[C@@H]2OC(CO)[C@@H](O[C@H]3OC(CO)[C@@H](O)C(O)C3O)C(O)C2O)CO[C@@H]2CC(CO)[C@@H](O[C@H]3OC(CO)[C@@H](O)C(O)C3O)C(O)C2O)c1 (stereo partly shown) [M-XMA-C16]",
    "CMC (wt %)": "~0.0004 wt %"
  }
]
